- MEASURED_TARGET: T1, A1 protein (mouse, residues 1-152, P104K C113S, used as wild type) (mouse)
- T1 sequence (Q07440 1-152 with P104K C113S, looked up): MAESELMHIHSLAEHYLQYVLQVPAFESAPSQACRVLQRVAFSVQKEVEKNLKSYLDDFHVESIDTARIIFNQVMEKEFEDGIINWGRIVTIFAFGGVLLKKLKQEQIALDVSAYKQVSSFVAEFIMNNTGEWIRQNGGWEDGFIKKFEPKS
- PROTOCOL_TEXT: fluorescence dissociation kinetics with competitor; dissociation; preformed complex of TAMRA-labelled peptide and partner protein mixed with excess unlabeled PUMA peptide as competitor; stopped-flow or Cary Eclipse spectrophotometer; 25 °C; 50 mM sodium phosphate, 0.05% (v/v) Tween 20, pH …
Where no end group is shown, it is not given here. The star is where a group is joined. TAMRA = 5-carboxytetramethylrhodamine, CN(C)c1ccc2c(-c3ccc(C(=O)*)cc3C(=O)[O-])c3ccc(=[N+](C)C)cc-3oc2c1
RECORDED_METRIC: log10 koff (log10 of the value in s⁻¹)
Kindly note that the scale is log10 and the underlying koff is in s⁻¹.

- BINDER: "{TAMRA}-SESQEEIIHNIARHLAQIGDAMDHNIQPTLVRQLA (peptide, UniProt P70444 76-110, looked up, BID, mouse, residues 76-110, UniProt P70444; source: synthetic peptide (Biomatik)) [BID E96A peptide, TAMRA-labelled]"
  log10 koff: -3.84
- BINDER: "{TAMRA}-RVEEEEWAREIGAQLRAAADDLNAQYERRRQEEQH [PUMA R143A peptide (on the M144A wild type), TAMRA-labelled]"
  log10 koff: -3.06
- BINDER: "{TAMRA}-SESQEEIIHNIARHAAQIGDEMDHNIQPTLVRQLA (peptide, UniProt P70444 76-110, looked up, BID, mouse, residues 76-110, UniProt P70444; source: synthetic peptide (Biomatik)) [BID L90A peptide, TAMRA-labelled]"
  log10 koff: -0.18
- BINDER: "{TAMRA}-RVEEEEWARAIGAQLRRAADDLNAQYERRRQEEQH [PUMA E136A peptide (on the M144A wild type), TAMRA-labelled]"
  log10 koff: -3.32
- BINDER: "{TAMRA}-SESQEEIIHNIARHLAQIGDGMDHNIQPTLVRQLA (peptide, UniProt P70444 76-110, looked up, BID, mouse, residues 76-110, UniProt P70444; source: synthetic peptide (Biomatik)) [BID E96G peptide, TAMRA-labelled]"
  log10 koff: -3.11
- BINDER: "{TAMRA}-SESQEEIIHNIARHLAQAGDEMDHNIQPTLVRQLA (peptide, UniProt P70444 76-110, looked up, BID, mouse, residues 76-110, UniProt P70444; source: synthetic peptide (Biomatik)) [BID I93A peptide, TAMRA-labelled]"
  log10 koff: -2.60
- BINDER: "{TAMRA}-SESQEEIIHNAARHLAQIGDEMDHNIQPTLVRQLA (peptide, UniProt P70444 76-110, looked up, BID, mouse, residues 76-110, UniProt P70444; source: synthetic peptide (Biomatik)) [BID I86A peptide, TAMRA-labelled]"
  log10 koff: -1.66
- BINDER: "{TAMRA}-RVEEEEWAREIGAQLRRAADGLNAQYERRRQEEQH [PUMA D147G peptide (on the M144A wild type), TAMRA-labelled]"
  log10 koff: -2.71

Which log10 koff is reported for this binder? {TAMRA}-RVEEEEWAREIGAQLRRAADDLNAQYEGRRQEEQH [PUMA R154G peptide (on the M144A wild type), TAMRA-labelled]
-3.36

Same read-out for {TAMRA}-RVEEEAWAREIGAQLRRAADDLNAQYERRRQEEQH [PUMA E132A peptide (on the M144A wild type), TAMRA-labelled] ?
-3.11

// query: {TAMRA}-RVEEEEWAREIGAQLRRAADDLNGQYERRRQEEQH [PUMA A150G peptide (on the M144A wild type), TAMRA-labelled]
-2.67

Same for {TAMRA}-RVEEEGWAREIGAQLRRAADDLNAQYERRRQEEQH [PUMA E132G peptide (on the M144A wild type), TAMRA-labelled]
-3.07
